# System: F/L-HERc cells expressing human EGF-R
# measurement_protocol: Inhibition of EGF-dependent proliferation of F/L-HERc cells
# Format: cell-based, murine cell line; human EGF-R
# assay_conditions: EGF 20 ng/ml, 37° C., 48 hours
# From the text: In this case, an interleukin-3 (IL-3)-dependent cell line of murine origin was used and was genetically modified in such a way that it expresses functional human EGF-R. Proliferation of these cells, which are called F/L-HERc, can therefore be stimulated either by murine IL-3 or by EGF (see von Ruden, T. et al. in EMBO J. 7, 2749-2756 (1988) and Pierce, J. H. et al. in Science 239, […] (1988)). […]
parameter: log10 of IC50 (log10 of the value in nM)
Field: value | Transform: log10 | Quantity: IC50 | Unit: nM

Some solved cases for reference:
compound	tested_target	parameter	test_result
NCCCCCNc1ncc2ncnc(Nc3ccc(F)c(Cl)c3)c2n1 [1(54)]	F/L-HERc cells expressing human EGF-R	log10 of IC50	1.00
CCN(CCO)c1ncc2ncnc(Nc3ccc(F)c(Cl)c3)c2n1 [1(23)]	F/L-HERc cells expressing human EGF-R	log10 of IC50	1.80
CC(C)(C)OC(=O)N1CCN(CCNc2ncc3ncnc(Nc4ccc(F)c(Cl)c4)c3n2)CC1 [1(35)]	F/L-HERc cells expressing human EGF-R	log10 of IC50	2.38

Q: Given COC(=O)NC1CCN(c2ncc3ncnc(Nc4ccc(F)c(Cl)c4)c3n2)CC1 [1(1)] , state its recorded log10 of IC50.
Result: 1.53

Q: Given Fc1ccc(Nc2ncnc3cnc(N4CCC(N5CCCC5)CC4)nc23)cc1Cl [1(31)] , state its recorded log10 of IC50.
Result: 2.01

Q: Given CCN(CC)CC(C)Nc1ncc2ncnc(Nc3ccc(F)c(Cl)c3)c2n1 (stereo not shown) [1(21)] , state its recorded log10 of IC50.
Result: 2.48

Q: Given OC1CCN(c2ncc3ncnc(Nc4ccc(F)c(Cl)c4)c3n2)CC1 [1(48)] , state its recorded log10 of IC50.
Result: 1.56

Q: Given Nc1c(Cl)cc(Nc2ncnc3cnc(N[C@H]4CC[C@H](C(=O)O)CC4)nc23)cc1Cl [1(16)] , state its recorded log10 of IC50.
Result: 1.30

Q: Given NC1CCCN(c2ncc3ncnc(Nc4ccc(F)c(Cl)c4)c3n2)CC1 (stereo not shown) [1(56)] , state its recorded log10 of IC50.
Result: 1.60

Q: Given NCC1CCC(CNc2ncc3ncnc(Nc4ccc(F)c(Cl)c4)c3n2)CC1 (stereo not shown) [1(22)] , state its recorded log10 of IC50.
Result: 1.63

Q: Given CC(N)CNc1ncc2ncnc(Nc3ccc(F)c(Cl)c3)c2n1 (stereo not shown) [1(11)] , state its recorded log10 of IC50.
Result: 1.88

Q: Given COC(=O)N1CCC(Nc2ncc3ncnc(Nc4ccc(F)c(Cl)c4)c3n2)CC1 [1(8)] , state its recorded log10 of IC50.
Result: 0.48

Q: Given Nc1cc(Cl)c(Nc2ncnc3cnc(N[C@H]4CC[C@H](O)CC4)nc23)cc1Cl [1(62)] , state its recorded log10 of IC50.
Result: 0.60

Q: Given Fc1ccc(Nc2ncnc3cnc(NCC45CCN(CC4)CC5)nc23)cc1Cl [1(24)] , state its recorded log10 of IC50.
Result: 0.95

Q: Given Fc1ccc(Nc2ncnc3cnc(NCC4CCNCC4)nc23)cc1Cl [1(29)] , state its recorded log10 of IC50.
Result: 1.11

Q: Given NCCCNc1ncc2ncnc(Nc3ccc(F)c(Cl)c3)c2n1 [1(9)] , state its recorded log10 of IC50.
Result: 1.26

###

# System: F/L-HERc cells expressing human EGF-R
# measurement_protocol: Inhibition of EGF-dependent proliferation of F/L-HERc cells
# Assay type: cell-based, murine cell line; human EGF-R
# assay_conditions: EGF 20 ng/ml, 37° C., 48 hours
parameter: IC50 (nM)
Output spec: scalar in nM, unitless text.

compound	IC50 / nM
O=C(N1CCOCC1)N1CCN(CCNc2ncc3ncnc(Nc4ccc(F)c(Cl)c4)c3n2)CC1	10
CN1CCC(N(C)c2ncc3ncnc(Nc4ccc(F)c(Cl)c4)c3n2)CC1	14
CN1CCC(C2CCN(c3ncc4ncnc(Nc5ccc(F)c(Cl)c5)c4n3)CC2)CC1	200

Q: Given CC(C)(C)OC(=O)N1CCC(CNc2ncc3ncnc(Nc4ccc(F)c(Cl)c4)c3n2)CC1 , state its recorded IC50.
Result: 200

Q: Given Fc1ccc(Nc2ncnc3cnc(N4CCC(C5CCNCC5)CC4)nc23)cc1Cl , state its recorded IC50.
Result: 83

Q: Given O[C@H]1CC[C@H](Nc2ncc3ncnc(Nc4cccc(Oc5ccccc5)c4)c3n2)CC1 , state its recorded IC50.
Result: 150

###

# Test system: F/L-HERc cells expressing human EGF-R
# measurement_protocol: Inhibition of EGF-dependent proliferation of F/L-HERc cells
# Type: cell-based, murine cell line; human EGF-R
# assay_conditions: EGF 20 ng/ml, 37° C., 48 hours
pIC50: −log10 of the molar value.
Overview of recorded pIC50 for various compounds

Some solved cases for reference:
compound	pIC50
COc1cccc(N2CCN(c3ncc4ncnc(Nc5ccc(F)c(Cl)c5)c4n3)CC2)c1 [1(32)]	< 6.00
O[C@H]1CC[C@H](Nc2ncc3ncnc(Nc4ccc(-c5ccccc5)cc4)c3n2)CC1 [1(63)]	< 5.00

# input for lookup
Q: Given OCc1cccc(Nc2ncnc3cnc(N[C@H]4CC[C@H](O)CC4)nc23)c1 [1(47)] , state its recorded pIC50.
Result: < 7.00

###

# System: F/L-HERc cells expressing human EGF-R
# measurement_protocol: Inhibition of EGF-dependent proliferation of F/L-HERc cells
# Type: cell-based, murine cell line; human EGF-R
# assay_conditions: EGF 20 ng/ml, 37° C., 48 hours
parameter: pIC50
The quantity pIC50 is defined as the negative base-10 logarithm of the molar concentration.

compound	tested_target	test_result
Fc1ccc(Nc2ncnc3cnc(N4CCCCCC4)nc23)cc1Cl [1(55)]	F/L-HERc cells expressing human EGF-R	7.40
CN1CCCN(c2ncc3ncnc(Nc4ccc(F)c(Cl)c4)c3n2)CC1 [1(12)]	F/L-HERc cells expressing human EGF-R	6.43
COC(CNc1ncc2ncnc(Nc3ccc(F)c(Cl)c3)c2n1)OC [1(25)]	F/L-HERc cells expressing human EGF-R	7.55
O=C(N[C@H]1CC[C@H](CNc2ncc3ncnc(Nc4ccc(F)c(Cl)c4)c3n2)CC1)OCc1ccccc1 [1(60)]	F/L-HERc cells expressing human EGF-R	6.92
Fc1ccc(Nc2ncnc3cnc(N4CCC(N5CCOCC5)CC4)nc23)cc1Cl [1(30)]	F/L-HERc cells expressing human EGF-R	6.90

Q: Query for F/L-HERc cells expressing human EGF-R: what pIC50 does the record show for COC(=O)[C@H]1CC[C@H](Nc2ncc3ncnc(Nc4ccc(F)c(Cl)c4)c3n2)CC1 [Example 1] ?
Result: 6.70

Q: Query for F/L-HERc cells expressing human EGF-R: what pIC50 does the record show for N#CN1CCC(Nc2ncc3ncnc(Nc4ccc(F)c(Cl)c4)c3n2)CC1 [1(50)] ?
Result: 8.52

###

# Tested on: F/L-HERc cells expressing human EGF-R
# measurement_protocol: Inhibition of EGF-dependent proliferation of F/L-HERc cells
# Format: cell-based, murine cell line; human EGF-R
# assay_conditions: EGF 20 ng/ml, 37° C., 48 hours
# Description: In this case, an interleukin-3 (IL-3)-dependent cell line of murine origin was used and was genetically modified in such a way that it expresses functional human EGF-R. Proliferation of these cells, which are called F/L-HERc, can therefore be stimulated either by murine IL-3 or by EGF (see von Ruden, T. et al. in EMBO J. 7, 2749-2756 (1988) and Pierce, J. H. et al. in Science 239, […] (1988)). […]
parameter: pIC50
The quantity pIC50 is defined as the negative base-10 logarithm of the molar concentration.

Some solved cases for reference:
compound	parameter	test_result
O=CNC1CCN(c2ncc3ncnc(Nc4ccc(F)c(Cl)c4)c3n2)CC1 [1(5)]	pIC50	7.68
COC(=O)[C@H]1CC[C@H](Nc2ncc3ncnc(Nc4cc(Cl)c(N)c(Cl)c4)c3n2)CC1 [1(15)]	pIC50	7.82
CC(C)(C)OC(=O)N1CCC(Nc2ncc3ncnc(Nc4ccc(F)c(Cl)c4)c3n2)CC1 [1(2)]	pIC50	7.36
CN1CCN(C2CCC(Nc3ncc4ncnc(Nc5ccc(F)c(Cl)c5)c4n3)CC2)CC1 (centres unmarked) [1(46)]	pIC50	8.70
NCC1CCCN(c2ncc3ncnc(Nc4ccc(F)c(Cl)c4)c3n2)C1 (centres unmarked) [1(61)]	pIC50	7.30

Q: Given CC(C)(N)CNc1ncc2ncnc(Nc3ccc(F)c(Cl)c3)c2n1 [1(27)] , state its recorded pIC50.
Result: 7.40

Q: Given CC1CC(c2ccc(O)cc2)CN1c1ncc2ncnc(Nc3ccc(F)c(Cl)c3)c2n1 (centres unmarked) [1(36)] , state its recorded pIC50.
Result: 6.85

Q: Given CC(CN1CCCCC1)Nc1ncc2ncnc(Nc3ccc(F)c(Cl)c3)c2n1 (centres unmarked) [1(20)] , state its recorded pIC50.
Result: 6.65

Q: Given CN1CCC(CNc2ncc3ncnc(Nc4ccc(F)c(Cl)c4)c3n2)CC1 [1(51)] , state its recorded pIC50.
Result: 8.05

Q: Given Nc1c(Br)cc(Nc2ncnc3cnc(N4CCC(N)CC4)nc23)cc1Br [1(3)] , state its recorded pIC50.
Result: 7.17

Q: Given Fc1ccc(Nc2ncnc3cnc(NC4CCCNCC4)nc23)cc1Cl (centres unmarked) [1(58)] , state its recorded pIC50.
Result: 8.40

Q: Given Nc1c(Cl)cc(Nc2ncnc3cnc(N[C@H]4CC[C@H](C(=O)N5CCCC5)CC4)nc23)cc1Cl [1(18)] , state its recorded pIC50.
Result: 8.52

Q: Given NCC1CCN(c2ncc3ncnc(Nc4ccc(F)c(Cl)c4)c3n2)CC1 [1(7)] , state its recorded pIC50.
Result: 8.10

Q: Given CC(C)(C)OC(=O)N1CCCC(Nc2ncc3ncnc(Nc4ccc(F)c(Cl)c4)c3n2)CC1 (centres unmarked) [1(57)] , state its recorded pIC50.
Result: 7.06

Q: Given Fc1ccc(Nc2ncnc3cnc(N4CCCNCC4)nc23)cc1Cl [1(13)] , state its recorded pIC50.
Result: 6.82

Q: Given NCCCCNc1ncc2ncnc(Nc3ccc(F)c(Cl)c3)c2n1 [1(10)] , state its recorded pIC50.
Result: 7.77

Q: Given NC[C@H]1CC[C@H](Nc2ncc3ncnc(Nc4ccc(F)c(Cl)c4)c3n2)CC1 [1(59)] , state its recorded pIC50.
Result: 9.00

Q: Given NCCNc1ncc2ncnc(Nc3ccc(F)c(Cl)c3)c2n1 [1(6)] , state its recorded pIC50.
Result: 6.91

Q: Given NCC1CCCC(CNc2ncc3ncnc(Nc4ccc(F)c(Cl)c4)c3n2)C1 (centres unmarked) [1(38)] , state its recorded pIC50.
Result: 7.29

Q: Given Fc1ccc(Nc2ncnc3cnc(NC4CN5CCC4CC5)nc23)cc1Cl (racemic) [1(4)] , state its recorded pIC50.
Result: 7.82

Q: Given Nc1ccc(CNc2ncc3ncnc(Nc4ccc(F)c(Cl)c4)c3n2)cc1 [1(14)] , state its recorded pIC50.
Result: 7.55

Q: Given Nc1c(Cl)cc(Nc2ncnc3cnc(N[C@H]4CC[C@H](C(=O)N5CCOCC5)CC4)nc23)cc1Cl [1(17)] , state its recorded pIC50.
Result: 9.00
